Recorded Ki for compounds tested on Beta-secretase 1 (Homo sapiens, UniProt P56817), drawn from a number of studies.

compound: C[C@@]1(c2cc(NC(=O)C3CC3)ccc2F)CS(=O)(=O)[C@]2(CCOC2)C(=N)N1
Ki [nM]: 5170

compound: CN1C(=N)N[C@](C)(c2cc(NC(=O)c3ccc(F)cn3)ccc2F)[C@]2(CCN(S(=O)(=O)CC3CCCO3)C2)S1(=O)=O (stereo partly shown)
Ki [nM]: 4

compound: COc1cccc2cc(-c3cc(Cl)c([C@]4(C)CS(=O)(=O)C5(CC5)C(=N)N4)s3)[nH]c12
Ki [nM]: 10

compound: CC1(C)C(=N)N[C@@]2(CCOc3ccc(NC(=O)c4ccc(C#N)cn4)cc32)CS1(=O)=O
Ki [nM]: 3
